Data origin, for the record: patent US11352322B2

Target under test: HDAC6 human recombinant enzyme (Homo sapiens (Human), UniProt Q9UBN7)
Sequence (Q9UBN7 whole entry): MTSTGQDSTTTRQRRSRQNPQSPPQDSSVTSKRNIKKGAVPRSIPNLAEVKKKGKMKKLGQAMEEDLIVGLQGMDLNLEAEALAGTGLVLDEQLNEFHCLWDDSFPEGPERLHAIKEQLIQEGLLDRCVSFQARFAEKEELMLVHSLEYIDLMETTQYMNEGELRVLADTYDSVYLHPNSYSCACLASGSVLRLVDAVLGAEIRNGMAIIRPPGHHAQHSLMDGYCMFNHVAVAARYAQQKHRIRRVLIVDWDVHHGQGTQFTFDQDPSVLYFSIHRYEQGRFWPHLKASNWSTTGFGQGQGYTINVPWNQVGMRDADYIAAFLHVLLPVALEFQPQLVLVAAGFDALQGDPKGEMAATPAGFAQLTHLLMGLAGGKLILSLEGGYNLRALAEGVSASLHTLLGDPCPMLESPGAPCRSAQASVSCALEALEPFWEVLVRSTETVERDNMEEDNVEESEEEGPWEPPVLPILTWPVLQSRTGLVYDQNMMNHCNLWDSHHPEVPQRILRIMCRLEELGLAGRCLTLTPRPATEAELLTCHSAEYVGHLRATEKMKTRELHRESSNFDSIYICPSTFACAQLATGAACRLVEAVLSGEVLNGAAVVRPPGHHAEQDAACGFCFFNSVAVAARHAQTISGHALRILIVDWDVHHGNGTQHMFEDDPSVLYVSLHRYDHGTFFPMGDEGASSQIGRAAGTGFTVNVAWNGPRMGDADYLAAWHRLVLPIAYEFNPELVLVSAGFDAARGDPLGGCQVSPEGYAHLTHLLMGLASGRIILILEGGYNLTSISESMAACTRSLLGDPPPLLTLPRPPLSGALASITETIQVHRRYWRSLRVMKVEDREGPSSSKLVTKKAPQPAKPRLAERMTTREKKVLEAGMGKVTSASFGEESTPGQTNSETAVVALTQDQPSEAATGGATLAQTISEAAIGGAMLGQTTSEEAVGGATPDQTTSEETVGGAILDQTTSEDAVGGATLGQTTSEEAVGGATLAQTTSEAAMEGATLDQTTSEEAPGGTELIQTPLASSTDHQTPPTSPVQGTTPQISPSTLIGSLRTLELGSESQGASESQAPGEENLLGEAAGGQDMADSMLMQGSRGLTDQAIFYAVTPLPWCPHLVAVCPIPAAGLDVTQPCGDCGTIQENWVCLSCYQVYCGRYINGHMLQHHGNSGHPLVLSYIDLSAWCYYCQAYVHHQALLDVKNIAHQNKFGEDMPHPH
Assay explanation: Histone Deacetylase Assay (BPS Biosciences), HDAC6
Structures can show the parent of a compound that is named as a salt.
Quantity kind: IC50 (nM)

[[record]]
molecule = "O=C(NO)c1ccc(CCCN2CCn3cc(CNC4CC4c4ccc(F)cc4)nc3C2)cc1 (stereo not shown) [Example 72, TFA Salt]"
endpoint_result = 18

[[record]]
molecule = "O=C(NO)c1ccc2c(c1)CN(C(=O)CCCN1CCC(CNC3CC3c3ccccc3)CC1)C2 (stereo not shown) [Example 109, TFA Salt]"
endpoint_result = 107

[[record]]
molecule = "O=C(NO)c1ccc(CN2CCc3ccc(CNC4CC4c4ccc(F)cc4)cc3C2)cc1 (stereo not shown) [Example 79, TFA Salt]"
endpoint_result = 24

[[record]]
molecule = "O=C(NO)c1ccc(CCCN2CCC(CNC3CC3c3cnn(-c4ccccc4)c3)CC2)cc1 (stereo not shown) [Example 68, TFA Salt]"
endpoint_result = 104


---

Target under test: HDAC6 human recombinant enzyme (Homo sapiens (Human), UniProt Q9UBN7)
Assay explanation: Histone Deacetylase Assay (BPS Biosciences), HDAC6
Type: biochemical
pIC50: −log10 of the molar value. Counter-ions that a name gives are not always drawn.
Quantity kind: pIC50

These solved cases illustrate the format of a correct answer.
[[record]]
compound = "O=C(NO)c1cc2c(s1)CCN(C(=O)CNC1CC1c1ccc(F)cc1)C2 (stereo not drawn) [Example 103, TFA Salt]"
quantity_kind = "pIC50"
endpoint_result = 7.39

[[record]]
compound = "O=C(NO)c1ccc2c(c1)CN(C(=O)CNC1CC1c1ccc(F)cc1)CC2 (stereo not drawn) [Example 104, TFA Salt]"
quantity_kind = "pIC50"
endpoint_result = 7.49

[[record]]
compound = "O=C(NO)c1ccc2c(c1)CN(C(=O)CCCNC1CC1c1ccc(F)cc1)CC2 (stereo not drawn) [Example 107, TFA Salt]"
quantity_kind = "pIC50"
endpoint_result = 7.07

[[record]]
compound = "O=C(NO)c1cc2c(s1)CCN(C(=O)CCCNC1CC1c1ccc(F)cc1)C2 (stereo not drawn) [Example 105, TFA Salt]"
quantity_kind = "pIC50"
endpoint_result = 7.74

[[record]]
compound = "O=C(NO)c1ccc(/C=C/C(=O)N2CCC(CN[C@@H]3C[C@H]3c3ccccc3)CC2)cc1 [Example 114A, TFA Salt]"
quantity_kind = "pIC50"
endpoint_result = 7.42

[[record]]
compound = "O=C(NO)c1ccc(CC(=O)N2CCC(CNC3CC3c3ccccc3)CC2)cc1 (stereo not drawn) [Example 84, TFA Salt]"
quantity_kind = "pIC50"
endpoint_result = 7.35


[a] O=C(NO)c1ccc(Cn2cc(CNC3CC3c3ccccc3)nn2)cc1 (stereo not drawn) [Example 41, TFA Salt]
[b] O=C(NO)c1ccc(CCN2CCC(CNC3CC3c3ccccc3)CC2)cc1 (stereo not drawn) [Example 42, TFA Salt]
[c] O=C(NO)c1ccc(CCCn2cc(CNC3CC3c3ccccc3)cn2)cc1 (stereo not drawn) [Example 76, TFA Salt]
-- ask Reorder: pIC50, max to min. Output the labels ranked as instructed.
-- reply c, a, b

---

Assay explanation: Metabolic stability in liver microsomes, MLM
Particulars: 1 μM, NADPH
Where a name gives a salt, the structure may show the parent alone.
Quantity kind: Metabolic stability MLM % remaining in 30 min (%)

Sample records with Metabolic stability MLM % remaining in 30 min:
[[record]]
molecule = "O=C(NO)c1ccc(CCCN2CCC(CNC3CC3c3ccc(OCc4ccc(F)cc4)cc3)CC2)cc1 (centres unmarked) [Example 52, TFA Salt]"
endpoint_result = 56

[[record]]
molecule = "O=C(NO)c1ccc(OCCCNC2CC2c2ccccc2)cc1 (centres unmarked) [Example 101, TFA Salt]"
endpoint_result = 29

[[record]]
molecule = "O=C(NO)c1ccc(/C=C/C(=O)N2CCC(CNC3CC3c3ccc(-c4cncnc4)cc3)CC2)cc1 (centres unmarked) [Example 117, TFA Salt]"
endpoint_result = 82


[A] Nc1ccccc1NC(=O)/C=C/c1ccc(CNC2CC2c2ccc(F)cc2)cc1 (centres unmarked) [Example 120, TFA Salt]
[B] Nc1ccccc1NC(=O)c1ccc(/C=C/C(=O)N2CCC(CNC3CC3c3ccc(F)cc3)CC2)cc1 (centres unmarked) [Example 156, TFA Salt]
-- ask Compare reported Metabolic stability MLM % remaining in 30 min values for A and B . Which is lower? In your reply, give the label of the chosen option.
-- reply A
(A: 16%, B: 49%)

---

Target under test: UniProtKB O60341
Assay explanation: TR-FRET Assay for LSD1
Particulars: read-out: LSD1 IC50
Where a name gives a salt, the structure may show the parent alone.
Quantity kind: IC50 (nM)

Answered cases to consult:
[[record]]
compound = "O=C(NO)C1CCC(NC2CC2c2ccccc2)CC1 (stereo not drawn) [Example 33, TFA Salt]"
endpoint_result = 2250

[[record]]
compound = "Cc1noc(C)c1-c1ccc(C2CC2NCC2CCN(Cc3ccc(C(=O)NO)cc3)CC2)cc1 (stereo not drawn) [Example 37, TFA salt]"
endpoint_result = 43

[[record]]
compound = "CC(C)n1cc(C2CC2NCC2CCN(CCCc3ccc(C(=O)NO)cc3)CC2)cn1 (stereo not drawn) [Example 67, TFA Salt]"
endpoint_result = 484

[[record]]
compound = "O=C(NO)c1ccc(CCC(=O)N2CCC(CNC3CC3c3ccccc3)CC2)cc1 (stereo not drawn) [Example 82, TFA Salt]"
endpoint_result = 94

[[record]]
compound = "Nc1ccccc1NC(=O)c1ccc(CCCn2cnc(CNC3CC3c3ccccc3)c2)cc1 (stereo not drawn) [Example 136, TFA Salt]"
endpoint_result = 570

[[record]]
compound = "O=C(NO)c1ccc(N2CCC(CNC3CC3c3ccc(F)cc3)CC2)cc1 (stereo not drawn) [Example 22, TFA Salt]"
endpoint_result = 6400

[[record]]
compound = "O=C(NO)c1ccc(CN2CCc3ccc(CNC4CC4c4ccc(F)cc4)cc3C2)cc1 (stereo not drawn) [Example 79, TFA Salt]"
endpoint_result = 79

[[record]]
compound = "Cn1cc(-c2ccc(C3CC3NCC3CCN(Cc4ccc(C(=O)Nc5ccccc5N)cc4)CC3)cc2)cn1 (stereo not drawn) [Example 142, TFA Salt]"
endpoint_result = 12

[[record]]
compound = "O=C(NO)c1ccc(OCCN2CCC(CNC3CC3c3ccccc3)CC2)cc1 (stereo not drawn) [Example 99, TFA Salt]"
endpoint_result = 4

[[record]]
compound = "O=C(NO)c1ccc(CCCN2CCC(CNC3CC3c3ccc(-c4ccc(Cl)cc4)cc3)CC2)cc1 (stereo not drawn) [Example 56, TFA Salt]"
endpoint_result = 2


[P] O=C(NO)c1ccc(/C=C/C(=O)N2CCC(CN[C@H]3C[C@@H]3c3ccc(F)cc3)CC2)cc1 [Example 115, TFA Salt]
[Q] O=C(NO)c1ccc2c(c1)CN(C(=O)CCCN1CCC(CNC3CC3c3ccccc3)CC1)C2 (stereo not drawn) [Example 109, TFA Salt]
-- ask For the pair P and Q , which member has the lower IC50 number? # answer = label of selected item
-- reply Q
(Q: 24 nM, P: 65 nM)

---

Assay explanation: In vivo PK studies in mice
Design: species or system Male Balb/C mice
Particulars: male, Balb/C, mouse, plasma, dose IV/PO 10/50 mg/kg
Where a name gives a salt, the structure may show the parent alone.
Quantity kind: bioavailability (%)
Answer with a number only, understood to be in %.

-- ask // query bioavailability value for entry O=C(NO)c1ccc(CCCN2CCC(CNC3CC3c3ccc(-c4cncnc4)cc3)CC2)cc1 (stereo not shown) [Example 61, TFA Salt]
-- reply 30

---

Assay explanation: In vivo PK studies in mice
Design: species or system Male Balb/C mice
Particulars: male, Balb/C, mouse, plasma, IV 10 mg/kg, read-out: Cl IV
Structures can show the parent of a compound that is named as a salt.
Quantity kind: clearance (mL/min/kg)
Just the number in mL/min/kg, nothing appended.

-- ask Which clearance reading was recorded for the compound O=C(NO)c1ccc(CCCN2CCC(CNC3CC3c3ccc(-c4cncnc4)cc3)CC2)cc1 (stereo not shown) [Example 61, TFA Salt] ?
-- reply 125

---

Target under test: LSD1 (Homo sapiens (Human))
Assay explanation: TR-FRET Assay for LSD1
pIC50: −log10 of the molar value.
Quantity kind: pIC50

[[record]]
compound = "O=C(NO)c1coc(CCCN2CCC(CNC3CC3c3ccccc3)CC2)n1.O=C(O)C(F)(F)F (stereo not drawn) [Example 113, TFA Salt]"
endpoint_result = 7.59


[I] O=C(NO)c1csc(CCCN2CCC(CNC3CC3c3ccccc3)CC2)n1.O=C(O)C(F)(F)F (stereo not drawn) [Example 110, TFA Salt]
[II] Cc1noc(C)c1-c1ccc(C2CC2NCC2CCN(CCCc3ccc(C(=O)NO)cc3)CC2)cc1.O=C(O)C(F)(F)F (stereo not drawn) [Example 64, TFA Salt]
-- ask Of I and II , which one carries the higher reported pIC50? API: response body contains the label of the selected item.
-- reply I
